- system tested: Substance-K receptor (Homo sapiens, UniProt P21452)
- Sequence (P21452 whole entry): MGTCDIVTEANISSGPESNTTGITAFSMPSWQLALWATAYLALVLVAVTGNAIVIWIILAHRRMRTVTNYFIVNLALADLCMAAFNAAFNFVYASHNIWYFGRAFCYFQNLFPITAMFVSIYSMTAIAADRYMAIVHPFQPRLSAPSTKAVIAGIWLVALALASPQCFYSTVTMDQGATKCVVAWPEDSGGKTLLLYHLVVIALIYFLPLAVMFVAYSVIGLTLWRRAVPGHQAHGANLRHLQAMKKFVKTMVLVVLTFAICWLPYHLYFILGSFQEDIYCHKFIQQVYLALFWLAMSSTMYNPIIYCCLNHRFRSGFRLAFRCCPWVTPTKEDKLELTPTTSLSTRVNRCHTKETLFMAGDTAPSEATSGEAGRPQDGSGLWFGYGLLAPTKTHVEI
Threshold 2 nM. Ki below it: 1. Ki at it or above: -1.

Qu. Dear reviewer, please state whether O=C1CC(C(=O)N2CCN(CCOCCO)CC2)C(=O)NC[C@@H](Cc2ccccc2)NC(=O)[C@@H](Cc2ccccc2)NC(=O)[C@H](Cc2c[nH]c3ccccc23)N1 (some centres not stated) has Ki strictly beneath 2 nM.
Ans. 1

Qu. Would you kindly repeat that for CC(=O)NC1C(NC(=O)C2CC(=O)N[C@@H](Cc3c[nH]c4ccccc34)C(=O)N[C@H](Cc3ccccc3)C(=O)N[C@H](Cc3ccccc3)CNC2=O)OC(CO)C(O)C1O (some centres not stated) ?
Ans. -1

Qu. Would you kindly repeat that for O=C1C[C@H](CC(=O)N2CCC(N3CCCCC3)CC2)C(=O)NC[C@@H](Cc2ccccc2)NC(=O)[C@@H](Cc2ccccc2)NC(=O)[C@H](Cc2c[nH]c3ccccc23)N1 ?
Ans. -1

Qu. Would you kindly repeat that for O=C(C[C@@H]1CC(=O)N[C@@H](Cc2c[nH]c3ccccc23)C(=O)NC(Cc2ccccc2)C(=O)NC(Cc2ccccc2)CNC1=O)NC1OC(CO)C(O)C(O)C1O (single isomer, unassigned) ?
Ans. -1

Qu. Would you kindly repeat that for O=C1CC(C(=O)N2CCOCC2)C(=O)NCC(Cc2ccccc2)NC(=O)C(Cc2ccccc2)NC(=O)[C@H](Cc2c[nH]c3ccccc23)N1 (single isomer, unassigned) ?
Ans. 1

Qu. Would you kindly repeat that for O=C1C[C@@H](CC(=O)N2CCC(N3CCCCC3)CC2)C(=O)NC[C@@H](Cc2ccccc2)NC(=O)[C@@H](Cc2ccccc2)NC(=O)[C@H](Cc2c[nH]c3ccccc23)N1 ?
Ans. 1

Qu. Would you kindly repeat that for CC(=O)NC1C(NC(=O)C[C@@H]2CC(=O)N[C@@H](Cc3c[nH]c4ccccc34)C(=O)N[C@H](Cc3ccccc3)C(=O)N[C@H](Cc3ccccc3)CNC2=O)OC(CO)C(O)C1O (some centres not stated) ?
Ans. -1

---

- system tested: Substance-K receptor (Oryctolagus cuniculus)
- Sequence (P79218 whole entry): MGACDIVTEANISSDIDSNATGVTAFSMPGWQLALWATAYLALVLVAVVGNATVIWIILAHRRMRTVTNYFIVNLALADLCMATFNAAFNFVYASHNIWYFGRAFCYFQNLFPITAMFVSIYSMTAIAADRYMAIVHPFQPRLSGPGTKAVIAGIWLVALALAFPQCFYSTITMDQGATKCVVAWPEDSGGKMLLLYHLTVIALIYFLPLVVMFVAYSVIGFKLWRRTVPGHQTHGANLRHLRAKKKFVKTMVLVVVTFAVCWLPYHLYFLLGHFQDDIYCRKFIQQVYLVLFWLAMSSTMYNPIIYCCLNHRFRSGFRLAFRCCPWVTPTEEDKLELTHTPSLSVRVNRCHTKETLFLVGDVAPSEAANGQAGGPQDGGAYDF
- protocol description: In vitro functional activity towards Neurokinin NK2 receptor on isolated rabbit urinary bladder (RUB)
- condition label: read-out: pA2 (converted)
observed property: Kb (nM)
Reply with just the number (in nM).

Qu. Recorded Kb of O=C1CCC(=O)N[C@@H](Cc2c[nH]c3ccccc23)C(=O)NC(Cc2ccccc2)C(=O)N[C@H](Cc2ccccc2)CN1 (single isomer, unassigned) , please.
Ans. 5.01

Qu. Would you kindly repeat that for O=C1CC(C(=O)N2CCN(CCOCCO)CC2)C(=O)NC[C@@H](Cc2ccccc2)NC(=O)[C@@H](Cc2ccccc2)NC(=O)[C@H](Cc2c[nH]c3ccccc23)N1 (stereo partly drawn) ?
Ans. 1

Qu. Would you kindly repeat that for O=C1CC(C(=O)N2CCC(N3CCCCC3)CC2)C(=O)NCC(Cc2ccccc2)NC(=O)C(Cc2ccccc2)NC(=O)[C@H](Cc2c[nH]c3ccccc23)N1 (single isomer, unassigned; 8e) ?
Ans. 0.794

Qu. Would you kindly repeat that for O=C1CC(C(=O)N2CCOCC2)C(=O)NCC(Cc2ccccc2)NC(=O)C(Cc2ccccc2)NC(=O)[C@H](Cc2c[nH]c3ccccc23)N1 (single isomer, unassigned) ?
Ans. 0.631

Qu. Would you kindly repeat that for O=C1CC(C(=O)NC(CO)CO)C(=O)NCC(Cc2ccccc2)NC(=O)C(Cc2ccccc2)NC(=O)[C@H](Cc2c[nH]c3ccccc23)N1 (single isomer, unassigned) ?
Ans. 3.16

Qu. Would you kindly repeat that for CC(=O)NC1C(NC(=O)C2CC(=O)N[C@@H](Cc3c[nH]c4ccccc34)C(=O)N[C@H](Cc3ccccc3)C(=O)N[C@H](Cc3ccccc3)CNC2=O)OC(CO)C(O)C1O (stereo partly drawn) ?
Ans. 3.98

Qu. Would you kindly repeat that for CC(=O)NC1C(NC(=O)C[C@H]2CC(=O)N[C@@H](Cc3c[nH]c4ccccc34)C(=O)N[C@H](Cc3ccccc3)C(=O)N[C@H](Cc3ccccc3)CNC2=O)OC(CO)C(O)C1O (stereo partly drawn) ?
Ans. 7.94

Qu. Would you kindly repeat that for O=C1C[C@@H](CC(=O)N2CCC(N3CCCCC3)CC2)C(=O)NC[C@@H](Cc2ccccc2)NC(=O)[C@@H](Cc2ccccc2)NC(=O)[C@H](Cc2c[nH]c3ccccc23)N1 ?
Ans. 2.51

Qu. Would you kindly repeat that for O=C(C[C@@H]1CC(=O)N[C@@H](Cc2c[nH]c3ccccc23)C(=O)NC(Cc2ccccc2)C(=O)NC(Cc2ccccc2)CNC1=O)NC1OC(CO)C(O)C(O)C1O (single isomer, unassigned) ?
Ans. 6.31

Qu. Would you kindly repeat that for CC(=O)NC1C(NC(=O)C[C@@H]2CC(=O)N[C@@H](Cc3c[nH]c4ccccc34)C(=O)N[C@H](Cc3ccccc3)C(=O)N[C@H](Cc3ccccc3)CNC2=O)OC(CO)C(O)C1O (stereo partly drawn) ?
Ans. 6.31

Qu. Would you kindly repeat that for O=C1C[C@H](CC(=O)N2CCC(N3CCCCC3)CC2)C(=O)NC[C@@H](Cc2ccccc2)NC(=O)[C@@H](Cc2ccccc2)NC(=O)[C@H](Cc2c[nH]c3ccccc23)N1 ?
Ans. 3.98

Qu. Would you kindly repeat that for O=C1C[C@@H](CC(=O)N2CCOCC2)C(=O)NCC(Cc2ccccc2)NC(=O)C(Cc2ccccc2)NC(=O)[C@H](Cc2c[nH]c3ccccc23)N1 (single isomer, unassigned) ?
Ans. 1

Qu. Would you kindly repeat that for CN(C)CCNC(=O)C[C@@H]1CC(=O)N[C@@H](Cc2c[nH]c3ccccc23)C(=O)N[C@H](Cc2ccccc2)C(=O)N[C@H](Cc2ccccc2)CNC1=O ?
Ans. 3.16
